All figures here come from ChEMBL document CHEMBL3044684.

- PROTOCOL_DESCRIPTION: Cytotoxicity against Homo sapiens (human) LS180 cells after 96 hr by MTT assay
- Type: functional, cell-based
- CONDITIONS: LS180, 96 h
READOUT_NAME: log10 of IC16 (log10 of the value in µM)

- COMPOUND: "COc1cccc2c1C(=O)c1c(O)c3c(c(O)c1C2=O)C[C@@](O)(C(=O)CO)C[C@@H]3O[C@H]1C[C@H](N)[C@H](O)[C@H](C)O1"
  READOUT_NAME: "log10 of IC16"
  ENDPOINT_RESULT: -1.52
- COMPOUND: "COc1ccccc1C1C2=C(CCCC2=O)Oc2c1c(=O)oc1ccccc21 (centres undefined)"
  READOUT_NAME: "log10 of IC16"
  ENDPOINT_RESULT: 1.72
- COMPOUND: "O=C1CCCC2=C1C(c1cccc(Br)c1)c1c(c3ccccc3oc1=O)O2 (centres undefined)"
  READOUT_NAME: "log10 of IC16"
  ENDPOINT_RESULT: 1.55
- COMPOUND: "O=C1CCCC2=C1C(c1cccc([N+](=O)[O-])c1)c1c(c3ccccc3oc1=O)O2 (centres undefined)"
  READOUT_NAME: "log10 of IC16"
  ENDPOINT_RESULT: 1.78
- COMPOUND: "Cc1cccc(C2C3=C(CCCC3=O)Oc3c2c(=O)oc2ccccc32)c1 (centres undefined)"
  READOUT_NAME: "log10 of IC16"
  ENDPOINT_RESULT: 1.67
